Attribution: PubChem BioAssay AID493091

biological target: Carboxy-terminal domain RNA polymerase II polypeptide A small phosphatase 1 (Homo sapiens); assay: Scp-1 phosphatase inhibitors, primary screen, biochemical, colorimetric, uHTS (AID 493091); details: Recombinant Scp1, phosphopeptide, malachite green phosphate absorbance; at 20 µM;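 note: plate controls were DMSO wells with enzyme for no effect and wells lacking enzyme for full effect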
About 3,000 (0.88%) of roughly 340,000 compounds were called active.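 Rule for the calls: active = inhibition above about 50% at 20 µM (limit read from the data); inactive = the rest.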 Shown is part of a subset that was picked to be rich in actives.
API: response.call in true = active, false = inactive

Sample answers from the record:
> print(dat)
                                   molecule  category.label
1  CN(CC(=O)Nc1ccc(F)c(F)c1F)C(=O)Cn1cnc2c1c(=O)n(C)c(=O)n2C           false
2  COc1ccc2oc(C(=O)NCC(Cc3ccccc3)N(C)C)c(C)c2c1 (stereo not given)           false
3  CC(C)(C)C1CCc2c(sc3nc(SCC(N)=O)nc(N)c23)C1 (stereo not given)           false
4  CCCn1nc(NS(=O)(=O)c2ccc(F)cc2)c2cc3ccccc3nc21           false
5  CCc1ccc(C(=O)N2CCN(S(=O)(=O)c3sc(C(=O)O)c(C)c3C(=O)O)CC2)cc1           false
6       O=C(COC(=O)CCC(=O)c1cccs1)NCc1ccco1            true

Query string: Identify the outcome logged in this assay for the molecule shown: O=C(Cn1nnc(-c2ccc3c(c2)OCO3)n1)NCc1ccco1
Result string: true

Query string: Identify the outcome logged in this assay for the molecule shown: COc1ccc(NC(=O)N(C)C[C@H]2Oc3ccc(NC(=O)C4CC4)cc3C(=O)N([C@H](C)CO)C[C@@H]2C)cc1
Result string: true

Query string: Identify the outcome logged in this assay for the molecule shown: CC(Sc1nn(-c2ccc(Cl)cc2)c(=S)s1)C(=O)NCC1CCCO1 (stereo not given)
Result string: false

Query string: Identify the outcome logged in this assay for the molecule shown: O=C(C1CCC1)N1CCN(c2ccccc2)CC1
Result string: false

Query string: Identify the outcome logged in this assay for the molecule shown: O=C(COC(=O)c1cccs1)NCc1cccs1
Result string: false

Query string: Identify the outcome logged in this assay for the molecule shown: Cc1noc(C)c1NC(=O)Nc1ccc2c(c1)C(=O)N([C@H](C)CO)C[C@H](C)[C@@H](CN(C)C(=O)Nc1ccccc1)O2
Result string: false

Query string: Identify the outcome logged in this assay for the molecule shown: CC(C)(CNC(=O)CNC(=O)C1CCCCC1)N1CCOCC1
Result string: false

Query string: Identify the outcome logged in this assay for the molecule shown: CCN(CC)c1ccc([N+](=O)[O-])cc1C(=O)O
Result string: false

Query string: Identify the outcome logged in this assay for the molecule shown: COc1ccc(CCNC(=O)COC(=O)c2cnc(Cl)c(Cl)c2)cc1
Result string: false

---

target: Carboxy-terminal domain RNA polymerase II polypeptide A small phosphatase 1 (Homo sapiens); experiment: Scp-1 phosphatase inhibitors, primary screen, biochemical, colorimetric, uHTS (AID 493091); conditions: Recombinant Scp1, phosphopeptide, malachite green phosphate absorbance; at 20 µM;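 note: plate controls were DMSO wells with enzyme for no effect and wells lacking enzyme for full effect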
The campaign covered roughly 340,000 compounds. About 3,000 (0.88%) were called active.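 Rule for the calls: active = inhibition above about 50% at 20 µM (limit read from the data); inactive = the rest.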 This is one part of a sample in which actives are shown more often than they occur.
API: response.call in YES = active, NO = inactive

> print(dat)
                                   compound  category.label
1  C=CCC(Nc1ccccc1)c1cccc(OC)c1OC (configuration not stated)              NO
2  Cc1ccc(S(=O)(=O)NCCC(=O)NNC(=O)C2COc3ccccc3O2)cc1 (configuration not stated)              NO

Then this compound:
Query string: Identify the outcome logged in this assay for the compound shown: Cc1ccc(OCCNC(=O)c2cccc(S(=O)(=O)N3CCN(Cc4ccccc4)CC3)c2)cc1
Result string: NO

---

molecular target: Carboxy-terminal domain RNA polymerase II polypeptide A small phosphatase 1 (Homo sapiens) (UniProt Q9GZU7); test: Scp-1 phosphatase inhibitors, primary screen, biochemical, colorimetric, uHTS (AID 493091); conditions: Recombinant Scp1, phosphopeptide, malachite green phosphate absorbance; at 20 µM; stronger effect = higher value;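 note: plate controls were DMSO wells with enzyme for no effect and wells lacking enzyme for full effect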
Sequence (Q9GZU7 76-261 limits assumed): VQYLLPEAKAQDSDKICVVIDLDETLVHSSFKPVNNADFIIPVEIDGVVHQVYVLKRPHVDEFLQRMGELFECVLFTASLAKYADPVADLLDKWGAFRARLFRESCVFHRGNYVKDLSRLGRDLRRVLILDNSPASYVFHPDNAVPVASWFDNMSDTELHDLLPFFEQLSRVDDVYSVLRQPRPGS
The whole screen tested about 340,000 compounds, of which about 3,000 (0.88%) were called active. Shown is part of a subset that was picked to be rich in actives.
REPORTED_ENDPOINT: inhibition

> print(dat)
                                   compound  reported.endpoint        data.value
1  Cc1cc(S(=O)(=O)N2CCOCC2)ccc1OCC(=O)N1CCOCC1         inhibition  2.62% (inactive)
2  Cc1ccc(CCNC(=O)c2ccc3nc4ccccc4c(=O)n3c2)cc1         inhibition    60.3% (active)

Items follow; give inhibition for each.
1. COc1ccc(Cl)cc1C=CC=NNC(=O)c1ccncc1
2. CC(C)(C)c1cc2cccnc2n1Cc1cccc(F)c1
3. CCn1c(=O)n(CC)c2cc(N3CCCC3)c(NC(=O)c3ccccc3Br)cc21
4. O=C(N/N=C/c1ccccc1O)/C(=C/c1ccccc1)CCO
5. Cc1ccsc1-c1nc(CSCC(=O)NCCN2CCCC2)c(C)o1
6. Cc1ccc(NC(=O)COc2ccc(/C=N\NC(=O)c3cccnc3)cc2)cc1C
7. CN(C)CCCN(C(=O)c1ccc(S(=O)(=O)N2CCCCCC2)cc1)c1nc2ccc(Br)cc2s1

Result string:
1: 54.2% (active); 2: -1.78% (inactive); 3: -2.26% (inactive); 4: -13.2% (inactive); 5: -6.12% (inactive); 6: 73% (active); 7: 11.7% (inactive)

---

target: Carboxy-terminal domain RNA polymerase II polypeptide A small phosphatase 1 (Homo sapiens); assay: Scp-1 phosphatase inhibitors, primary screen, biochemical, colorimetric, uHTS (AID 493091); conditions: Recombinant Scp1, phosphopeptide, malachite green phosphate absorbance; at 20 µM; stronger effect = higher value;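 note: plate controls were DMSO wells with enzyme for no effect and wells lacking enzyme for full effect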
In all, about 340,000 compounds went through this assay and about 3,000 (0.88%) were called active. Shown is part of a subset that was picked to be rich in actives.
REPORTED_ENDPOINT: inhibition (%)
One number for each entry, in %.

Previously resolved entries follow.
> print(dat)
                                   compound  data.value
1      Cc1cccc(N=Nc2c(O)[nH]c3ccc(F)cc23)c1       -10.6
2  C#CCOc1ccc(/C=C2/C(=O)NN(c3ccccc3)C2=O)cc1OC       -4.73
3  CN(CCc1ccccn1)S(=O)(=O)c1ccc2c3c(cccc13)C(=O)N2        0.36
4  CSc1ccccc1NC(=O)C(C)N1C(=O)c2ccccc2S1(=O)=O (stereo unspecified)        39.4
5  COc1cccc(Cn2cc(/C=N/NC(=O)c3cc(O)cc(O)c3)c3ccccc32)c1       -15.4

Items follow; give inhibition for each.
1. O=C1CC2(CCN(C(=O)COc3ccc(F)cc3)CC2)Oc2ccccc21
2. C[C@H](NC(=O)c1nc[nH]c1C(=O)NCC(=O)OC(C)(C)C)C(=O)OCc1ccccc1
3. O=C(O)c1ccc(N/N=C/c2ccc3ncccc3c2)cc1
4. CCn1c(=S)sc2c(=O)n(CC(=O)Nc3cccc(Br)c3)c(C)nc21
5. Cc1sc2nc(CSCC(=O)NC3CCCCC3)[nH]c(=O)c2c1C

Result string:
1.25
-3.03
50.4
-11
1.62

Items follow; give inhibition for each.
1. Cc1oc2c(C)c3oc(=O)c(CC(=O)N[C@@H](CC(C)C)C(=O)N[C@@H](Cc4ccccc4)C(=O)O)c(C)c3cc2c1C
2. CCc1ccc(NC(=O)CS(=O)CC(=O)NCCCc2ccccc2)cc1 (stereo unspecified)
3. CCN(Cc1cc2cc(C)ccc2[nH]c1=O)S(=O)(=O)c1ccccc1
4. O=C(CSc1ccc(/C=N/NC(=O)c2cccc(F)c2)o1)Nc1ccccc1
5. Cc1ccc(N2C(=O)CC(Nc3cccc4ccccc34)C2=O)cc1 (stereo unspecified)

Result string:
1. 88
2. 93.4
3. -4.68
4. -3.74
5. -3.84

Items follow; give inhibition for each.
1. CCOc1cc(C2C(C(=O)OC(C)C)=C(C)NC3=C2C(=O)CCC3)cc([N+](=O)[O-])c1O (stereo unspecified)
2. Cc1ccnc(-n2sc3ccccc3c2=O)n1

Result string:
-7.32
70.8

Items follow; give inhibition for each.
1. O=C1NN(c2ccccc2)C(=O)/C1=C/c1ccc(-c2cccc(C(=O)O)c2)o1
2. COc1ccc(/C=C/CN2CCCC(C(=O)c3cc(F)ccc3F)C2)cc1 (stereo unspecified)
3. O=C(Cn1cc(/C=N/NC(=O)c2cccc(C(F)(F)F)c2)c2ccccc21)Nc1ccc(F)cc1

Result string:
1: 52; 2: -4.6; 3: 90.8

Given the compound CSc1nnc(SCc2nc3sc(C(=O)O)c(C)c3c(=O)[nH]2)s1 and test system Carboxy-terminal domain RNA polymerase II polypeptide A small phosphatase 1 (Homo sapiens), the measured inhibition is 74
